Target: T1, chimeric human p-selectin (human, UniProt P16109 42-321)
T1 construct: also called human P-selectin-IgG
T1 sequence (looked up): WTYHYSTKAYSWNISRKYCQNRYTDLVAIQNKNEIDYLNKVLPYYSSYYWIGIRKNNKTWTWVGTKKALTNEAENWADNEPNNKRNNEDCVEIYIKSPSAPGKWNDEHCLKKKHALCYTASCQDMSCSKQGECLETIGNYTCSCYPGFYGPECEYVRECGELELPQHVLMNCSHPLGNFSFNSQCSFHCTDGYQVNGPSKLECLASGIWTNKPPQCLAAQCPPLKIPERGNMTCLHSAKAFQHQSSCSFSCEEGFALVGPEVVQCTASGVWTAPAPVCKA
Assay: competition ELISA; coated chimeric human P-selectin, competitor 2.5 nM TM11-strepPO complex; column head 'Affinity'
Experimental: Linear compounds were tested in the presence of DTT to prevent aggregate formation. After washing 6 times with assay buffer, the wells were incubated with 100 μl TMB/H_2O_2 for 15 min at RT. The reaction was stopped with 1 M H_2SO_4 and the absorbance read at 450 nm. From the results, the affinity constants were calculated: […]
Positions of bridges follow the written chain, without caps; N, C: chain ends. No end group written: not given here. *: point of attachment. Biotin = O=C1N[C@H]2[C@H](CS[C@H]2CCCCC(=O)*)N1; Ahx = NCCCCCC(=O)O
READOUT NAME: IC50 (µM)

{Biotin-Ahx}-CPEFVDVEGDPGALLAC (cysteine pairing not given here, Linear compounds were tested in the presence of DTT) [Biotin-TM1]	82

a. {Biotin-Ahx}-CPDWVDVFKLVEGVMLC (cysteine pairing not given here, Linear compounds were tested in the presence of DTT) [Biotin-TM16]
b. {Biotin-Ahx}-CDVEWVDVSC (cysteine pairing not given here, Only TM11 is said to have been prepared in a cyclized form as well) [Biotin-A17]
c. {Biotin-Ahx}-CDVEWVDVSSLEWDLPC (disulfide 1-17) [Biotin-TM11(cyclic)]
d. {Biotin-Ahx}-VGLDPRDWVDVSDYA [Biotin-SH31]
e. {Biotin-Ahx}-CGWVDVIASGDTATLAC (cysteine pairing not given here, Linear compounds were tested in the presence of DTT) [Biotin-TM2]
(Q) // sort entries: IC50, high to low Return value: ordered labels per request.
(A) e, d, a, c, b
